These data points were gathered from PubChem BioAssay (NCI).

Items are presented alongside their recorded growth.
# Test system: UACC-257 melanoma
# runDescription: NCI-60 one-dose screen, 48 h (100 = growth as untreated, 0 = no growth, -100 = all killed)
# conditionDetails: 10 µM unless noted
Compounds without any hit were thinned out: in the full panel of roughly 83,000, 20% have a hit.
Give the quantity in %, number only.

{"molecule": "COc1ccc(/C(C)=N/NC(=O)c2ccc(S(C)(=O)=O)cc2)cc1OC", "unitsOfMeasure": "%", "growth": 96.3}
{"molecule": "O=C(O)C(CCc1ccccc1)NCc1ccccc1 (stereo not drawn)", "unitsOfMeasure": "%", "growth": 99.4}
{"molecule": "O=C(O)c1cc2cc(OCc3ccccc3)ccc2[nH]1", "unitsOfMeasure": "%", "growth": 48}
{"molecule": "C#CCO[C@H]1CC[C@H](OCC#C)[C@@H]2[C@H]1[C@H]1C[C@@H]3[C@@]4(C)CCC[C@@](C)(C(=O)OC)[C@@H]4CC[C@@]23C=C1C(C)C", "unitsOfMeasure": "%", "growth": 56}
{"molecule": "Cc1ccsc1C(=O)CC(=O)C(F)(F)C(F)(F)C(F)(F)F", "unitsOfMeasure": "%", "growth": 108}

Given CCCCCCCCCCCCCCCCCC1=NCCN1CCO , state its recorded growth.
84.4

Given COc1ccc(/C=C/C(=O)CCC(=O)O)cc1OC , state its recorded growth.
105

Given CN(C)c1ccc(C2(Cl)c3ccccc3N(C)c3ccccc32)cc1 , state its recorded growth.
54.4

Given CC(C)(C)c1nn(-c2ccccc2)c2c1C(=O)CSC(c1ccccc1Cl)N2 (stereo not drawn) , state its recorded growth.
77.4

Given CCCCCCCCCCCCNC(=O)N[C@H](C(=O)N[C@H]1/C=C/CCNC(=O)/C=C/[C@H](C)NC1=O)C(C)C , state its recorded growth.
49.9
